measured target: PTS Enzyme I (Escherichia coli, UniProt P08839)
Construct: made in house
assay procedure: Inhibition of sugar uptake assay (enzyme I dependent GlcNAc phosphorylation), low molecular weight compounds
Format: biochemical, E. coli
experimental setup: compounds at 25-200 μM, DMSO control taken as 100%; read-out: Activity against PTS Enzyme I IC50
Examples of compounds with documented IC50 follow.
# unit: µM | format: bare number

Cc1cc(-c2onc(C)c2C(=O)Sc2ccc(Cl)cc2)no1 : 50

Read the next record carefully.
Q) Which value of IC50 has been reported for O=C1NN=C(c2ccccc2)CC1Cc1ccc(O)cc1 (centres unmarked) in the records?
A) 20
